test system: BT-549; experiment: NCI tumour cell line growth inhibition, 48 h
Activity calls are given as the source filed them. Rule as the data show it: active = GI50 up to about 1.1 µM and inactive = higher.
measured-attribute: GI50

Look over these answered cases.
C[C@@H]1CC[C@@H]2[C@@H](C1)O[C@@H]([C@H](C)OCc1ccccc1)SC2(C)C :: 39.4 µM (inactive)
O=C1C2C3C=CC(C2C(=O)N1CN1CCOCC1)C1C2C(=O)N(CN4CCOCC4)C(=O)C2C31 (configuration not stated) :: > 100 µM (inactive)
O=c1oc2ccccc2cc1-c1nc2ccccc2s1 :: 17.2 µM (inactive)
O=c1c(Cl)cc2nc3ccccc3sc-2c1Cl :: 11.7 µM (inactive)
CC(=N\N=C\c1ccccn1)/C(C)=N/N=C(C)/C(C)=N/N=C/c1ccccn1 :: > 100 µM (inactive)

Query (compound): CN(Cc1cnc2nc(N)nc(N)c2n1)c1ccc(C(=O)NC(CO)CCCO)cc1 (configuration not stated) ; field requested: GI50 > 100 µM (inactive)

Query (compound): `CC(=O)Oc1ccc2c3c1O[C@H]1[C@H](O)CC[C@@]4(O)[C@@H](C2)N(C)CC[C@]314` ; field requested: GI50 > 100 µM (inactive)
